- PROTOCOL SUMMARY: Quantitative High-Throughput drug screen in 47 multiple myeloma cell lines against the NCATS MIPE library collection: VP6_DJ cell viability assay (AID 1919867); also: nearly all actives have a fitted effect of over 40% in size
- CONDITIONS USED: ATP luminescence, 48 h; series mostly up to 45.8 µM
Inconclusive results are not listed. Active and inactive are the calls of the source. Calls follow the shape of the dose curve; as a rule, active = well fitted cell-killing curve with a large enough effect; inconclusive = small, poorly fitted or top-dose-only effect, or effect the other way; inactive = no such curve, though single readings can be large or run the other way.
Could you please pick one outcome from this set? yes = active, no = inactive

Hello, I am checking results. What call was entered for `CCOC(=O)N1CCN([N+]([O-])=NOc2ccc([N+](=O)[O-])cc2[N+](=O)[O-])CC1` ?
yes

# lookup: test call for `COc1ccc(C[C@@H](C)[C@@H](C)Cc2ccc(OC)c(OC)c2)cc1OC`
yes

Recorded test call requested for `COc1cc(C=CC(=O)CC(=O)C=Cc2ccc(O)c(OC)c2)ccc1O`
yes

Status in this test for `CC(C)c1cnn2c(NCc3ccccc3)cc(NCCCCCCN)nc12` ?
yes

Lab log entry: `OCc1ccccc1O[C@@H]1O[C@H](CO)[C@H](O)[C@H](O)[C@H]1O` — outcome as called in the assay?
no

###

- PROTOCOL SUMMARY: High-throughput drug toxicity screening in the BPDCN cell line Cal-1 (AID 1224825);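 also: cells exposed to compounds for 48 h; 100% = DMSO and 0% = bortezomib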
- CONDITIONS USED: Cal-1 BPDCN cell viability, qHTS; at 45.8 µM (top of the series) unless noted
- Excerpt: Blastic plasmacytoid dendritic cell neoplasm (BPDCN) is a rare, aggressive and largely incurable hematologic malignancy originating from plasmacytoid dendritic cells (pDCs). Although an initial response to chemotherapy is common, BPDCN prognosis is extremely poor and most patients relapse with drug-resistant disease leading to a median overall survival of ~1 year after diagnosis. […]
ASSAY METRIC: viability (% of control) (%)
The figure you give is taken to be in %; do not add the unit.

Dear colleague, I am looking for the recorded viability (% of control) of the following compound: Cc1noc(-c2ccc(CSCCC(=O)O)cc2)c1NC(=O)OC(C)c1ccccc1Cl (centres undefined)
103

viability (% of control) lookup needed for `CC(C)Oc1ccc(C(=O)N[C@H](CNC(=O)CN(C)C)Cc2ccc(-c3cn4cccc([C@H](C)O)c4n3)cc2)cc1Cl` , thanks.
18.5

Can you look up the measured viability (% of control) of `COc1cc2c(Nc3ccc(Cl)c(Cl)c3F)ncnc2cc1OCC1C[C@@H]2CN(C)C[C@H]2C1` for me?
2.8

Consider the compound shown here: `CNC(=O)c1cccc(-c2ccc3c(N4CCOC[C@H]4C)nc(N4CCOC[C@H]4C)nc3n2)c1` What is its recorded viability (% of control)?
20.9

Given the entry `COc1ccc(C=Cc2cc(OC)c(OC)c(OC)c2)cc1NC(=O)[C@H](N)CO` , report its measured viability (% of control).
7.97

Param item = CCOC(=O)C1=C(C)NC(=S)NC1c1cccc(O)c1 (centres undefined) ; retrieve measured viability (% of control).
19.3

Reported viability (% of control), compound O=C1NC(O)CCN1[C@@H]1O[C@H](CO)[C@H](O)[C@H]1O (some centres undefined) : ____
115

Given the entry `Cc1cnc(Nc2ccc(CN3CCOCC3)cc2)nc1Nc1cccc(S(=O)(=O)NC(C)(C)C)c1` , report its measured viability (% of control).
3.36

# input compound: Cc1ccc(O)c(C(CCN(C(C)C)C(C)C)c2ccccc2)c1 (centres undefined) ; wanted: its viability (% of control)
103

###

- PROTOCOL SUMMARY: qHTS of pediatric cancer cell lines to identify multiple opportunities for drug repurposing: Primary screen for Rh41 cells (AID 1347108); also: nearly all actives have a fitted effect of over 70% in size
- CONDITIONS USED: Rh41 rhabdomyosarcoma viability, CellTiter-Glo luminescence, 48 h; series mostly up to 46 µM
Records with an inconclusive call do not appear. Calls of active or inactive are those of the source. The call rests on the fitted dose curve; in most records, active means well fitted cell-killing curve with a large enough effect; inconclusive means small, poorly fitted or top-dose-only effect; inactive means no such curve, though single readings can be large or run the other way.
Hi! Could you answer with just one of these? t (active), f (inactive)

Hey, what did the test say about Nc1nc(=O)n([C@H]2CSC(CO)O2)cc1F (stereo partly specified) ?
f

For this compound, state the assay outcome: `O=C(O)CCCCCC(=O)NN=C1CCCC1`
f

Tell me the recorded outcome of this test for `CC(C)(O)Cn1c(NC(=O)c2ccc(-c3cn[nH]c3)s2)nc2cc(CN3CCOCC3)ccc21` .
t

// return assay outcome for OC[C@H]1OC(O)C[C@@H](O)[C@H]1O (stereo partly specified)
f

How did this test come out for `Nc1nc(=O)n([C@H]2C[C@H](O)[C@@H](CO)O2)cc1F` ?
f

Which result was noted for this compound in the test: `O=C(O)C(=O)Nc1cccc(C2=NN=N[N]2)c1`
f

###

- PROTOCOL SUMMARY: qHTS Screen of the MIPE 4.0 Collection Against Ewings Sarcoma (TC32) (AID 1259256); also: nearly all actives have a fitted effect of over 45% in size
- CONDITIONS USED: TC32 Ewing sarcoma viability, CellTiter-Glo, 48 h; series mostly up to 45.8 µM
Results filed as inconclusive are left out. Activity calls are given as the source filed them. The call rests on the fitted dose curve; in most records, active means well fitted inhibition curve with a large enough effect; inconclusive means small, poorly fitted or top-dose-only effect; inactive means no such curve, though single readings can be large or run the other way.
I would appreciate it if you answered using one of these outcomes: T = active, F = inactive

Assay result, entry Cc1noc(-c2ccc(CSCCC(=O)O)cc2)c1NC(=O)OC(C)c1ccccc1Cl (configuration not stated) — outcome?
F

Assay result, entry `Cc1[nH]c(C=C2C(=O)Nc3ccccc32)c(C)c1CCC(=O)O` — outcome?
T

Status in this test for `CCOC(=O)C=C[C@H](C[C@@H]1CCNC1=O)NC(=O)[C@@H](CC(=O)[C@@H](NC(=O)c1cc(C)on1)C(C)C)Cc1ccc(F)cc1` ?
F

Can you look up the reported call for `CC(=O)O[C@H]1C[C@@H]2CC[C@H]3[C@H]4C[C@H]([N+]5(C)CCCCC5)[C@@H](OC(C)=O)[C@@]4(C)CC[C@@H]3[C@@]2(C)C[C@H]1N1CCCCC1` for me?
T

Recorded call for `CC(C)(O)Cn1c(NC(=O)c2ccc(-c3cn[nH]c3)s2)nc2cc(CN3CCOCC3)ccc21` ?
T

# lookup: test call for `C=CC[C@@H]1C=C(C)C[C@H](C)C[C@H](OC)[C@H]2O[C@@](O)(C(=O)C(=O)N3CCCC[C@H]3C(=O)O[C@H](C(C)=C[C@@H]3CC[C@H](O)[C@H](OC)C3)[C@@H](C)[C@@H](O)CC1=O)[C@@H](C)C[C@@H]2OC`
T

Recorded test outcome, item Nc1ccn(C2CO[C@H](CO)O2)c(=O)n1 (some centres not stated)
F

###

- PROTOCOL SUMMARY: Quantitative High-Throughput drug screen in 47 multiple myeloma cell lines against the NCATS MIPE library collection: OCIMY5_PLB cell viability assay (AID 1918988); also: nearly all actives have a fitted effect of over 65% in size
- CONDITIONS USED: OCI-MY5 myeloma viability, ATP luminescence, 48 h; series mostly up to 45.8 µM
Inconclusive results are not listed. The source made the active and inactive calls. Calls follow the shape of the dose curve; as a rule, active = well fitted cell-killing curve with a large enough effect; inconclusive = small, poorly fitted or top-dose-only effect, or effect the other way; inactive = no such curve, though single readings can be large or run the other way.
Please state which outcome applies, choosing from active, inactive

Dear colleague, could you share the recorded outcome for `O=S(=O)(O)CCSSCCS(=O)(=O)O` when you have a moment?
inactive

// return assay outcome for `C=C1C(=O)O[C@H]2[C@@H]1CCC(C)=CCC[C@@]1(C)O[C@@H]21`
active

Look up the recorded call for `Oc1ccc([C@@H]2Oc3ccc(O)cc3[C@@H]3CCC[C@@H]32)cc1` in this test.
active

Which outcome was assigned to N[C@H]1CN(c2c(F)cc3c(=O)c(C(=O)O)cn(C4C[C@@H]4F)c3c2Cl)CC12CC2 (stereo not given in full) in this test?
active

Given `CC(=O)N1CCN(c2ccc(OCc3nn(C)c(C)c3-c3cccc4c(CCCOc5cccc6ccccc56)c(C(=O)O)n(Cc5cccnc5)c34)cc2)CC1` , state the outcome it received in this test.
active

###

- PROTOCOL SUMMARY: Quantitative High-Throughput drug screen in 47 multiple myeloma cell lines against the NCATS MIPE library collection: L363_DSMZ cell viability assay (AID 1918984); also: nearly all actives have a fitted effect of over 40% in size
- CONDITIONS USED: L363 myeloma viability, CellTiter-Glo ATP luminescence, 48 h; series mostly up to 45.8 µM
Records with an inconclusive call do not appear. The source made the active and inactive calls. The call rests on the fitted dose curve; in most records, active means well fitted cell-killing curve with a large enough effect; inconclusive means small, poorly fitted or top-dose-only effect, or effect the other way; inactive means no such curve, though single readings can be large or run the other way.
Select the correct class. Options are active, inactive and nothing else.

Called result for `O=C(NCc1ccccc1)[C@H](Cc1ccccc1)NC(=O)[C@@H]1O[C@@H]1C(=O)NCCc1ccc(O)cc1`
active

Query: recorded result category for CC(=O)SCC(Cc1ccccc1)C(=O)NCC(=O)OCc1ccccc1 (stereo not given) in this test
active

Hi, do you know how `CC(=O)[C@]1(O)Cc2c(O)c3c(c(O)c2[C@@H](O[C@H]2C[C@H](N)[C@@H](O)[C@H](C)O2)C1)C(=O)c1ccccc1C3=O` came out in this test?
active

Please let me know the test result on file for `CNC(=O)c1ccc(Nc2cc(Nc3ccccc3S(=O)(=O)C(C)C)c3cc[nH]c3n2)nc1` .
active

What did the test return for CCC(C(=O)O)C1CCC(C)C(C(C)C(O)C(C)C(=O)C(CC)C2OC3(C=CC(O)[C@@]4(CC[C@](C)(C5CC[C@@](O)(CC)C(C)O5)O4)O3)C(C)CC2C)O1 (stereo not given in full) ?
active

Assay result, entry `C[C@H](NCc1ccc2c(c1)nc(NC(=O)c1ccc(-c3cn[nH]c3)s1)n2CCc1ccccc1)C(C)(C)C` — outcome?
active

# lookup: test call for `C[C@@]12C[C@@]3(O)O[C@@H](O1)[C@]1(COC(=O)c4ccccc4)[C@@H]3C[C@@]12O[C@@H]1O[C@H](CO)[C@@H](O)[C@H](O)[C@@H]1O`
inactive

Please indicate how the test categorized `Cc1cncc2cccc(S(=O)(=O)N3CCCN(C(=O)CN)C[C@@H]3C)c12` .
inactive

Test call for this compound, please: `CN1CCCN(C(=O)c2cccc(-c3ccc(C=C4C(=O)Nc5ccc(Cl)cc54)o3)c2)CC1`
active

State the result this test recorded for `FC(F)(F)c1ccc(Nc2nc3ccc(Oc4ccnc(-c5ncc(C(F)(F)F)[nH]5)c4)cc3[nH]2)cc1` .
active
